measured-on: Beta-glucuronidase (Escherichia coli (strain K12))
experiment-description: Inhibition of Escherichia coli beta-glucuronidase assessed as reduction of p-nitrophenol release using beta-PNPG as substrate at 10 uM incubated for 30 mins by Spectra max microplate reader analysis relative to control
Response field class: enum, chosen by comparing inhibition against low (below 30%), moderate (30% to below 90%), high (90% or more)

Answered cases to consult:
| entry-smiles | group |
| --- | --- |
| Cc1cc2c(c(=O)o1)C[C@H]1C(=O)[C@@H](O)[C@H](O)[C@H](O)[C@H]1O2 | low |
| O=C1C(COCc2cc(O)cc(Cl)c2O)=C[C@@H](O)[C@@H](O)[C@@H]1Cl | moderate |
| O=C(O)[C@@H](O)[C@H]1OC(=O)[C@H](O)[C@H]1O | low |
| O=C1C(Cc2cc(O)cc(Cl)c2O)=C[C@H](O)[C@@H](O)[C@@]12CCc1cc(O)c(Cl)c(Cl)c1O2 | high |
| Cc1cc(O)c(Cc2cc(O)cc(Cl)c2O)c(=O)o1 | low |
| O=Cc1cc(O)cc(Cl)c1O | moderate |
| CO[C@@H]1[C@@H](O)C=C(Cl)C(=O)[C@]12CCc1cc(O)cc(Cl)c1O2 | high |
| CCCCO[C@@H]1C(=O)C(C)=C[C@@H](O)[C@H]1O | moderate |
| O=C1C(Cl)=C[C@H](O)[C@H](O)[C@@]12CCc1cc(O)cc(Cl)c1O2 | moderate |
| O=C1C(Cl)=C[C@H](O)[C@@H](O)[C@@]12CCc1cc(O)cc(Cl)c1O2 | high |

Qu. Which of the defined bands does the recorded inhibition of Cc1cc2c(c(=O)o1)C[C@@H]1C(=O)C(Cl)=C[C@H](O)[C@H]1O2 sit within?
Ans. moderate

Qu. GET /class?item= Cc1cc2c(c(=O)o1)C[C@H]1[C@@H](O)[C@H](O)[C@H](O)[C@H]3c4c(cc(C)oc4=O)O[C@]31O2
Ans. low

Qu. Category lookup for the molecule O=C(O)c1cc(=O)c2ccccc2[nH]1
Ans. low

Qu. Category lookup for the molecule COCc1cccc(Cl)c1O
Ans. low

Qu. Class label required: O=C1C(Cl)=C[C@H](O)[C@@H](O)[C@]12CCc1cc(O)cc(Cl)c1O2
Ans. moderate

Qu. Class? Entry: C[C@@H]1C[C@@H](O)[C@H](O[C@@H]2[C@@H](O)C=C(Cl)C(=O)[C@]23CCc2cc(O)cc(Cl)c2O3)C[C@@H]1O
Ans. low

Qu. Which category does the recorded inhibition put C[C@H]1C[C@H](O)[C@@H](O)C[C@H]1OCc1cc(O)cc(Cl)c1O in?
Ans. high

Qu. Which inhibition category applies to CCCCOCC1=C[C@@H](O)[C@@H](O)[C@H](O)C1=O here?
Ans. moderate
